target: human ether-à-go-go-related gene (hERG) potassium channel (human, UniProt Q12809); test: primary screen, population patch clamp on CHO cells stably expressing hERG; higher = less effect of the substance
Sequence (Q12809 whole entry, looked up): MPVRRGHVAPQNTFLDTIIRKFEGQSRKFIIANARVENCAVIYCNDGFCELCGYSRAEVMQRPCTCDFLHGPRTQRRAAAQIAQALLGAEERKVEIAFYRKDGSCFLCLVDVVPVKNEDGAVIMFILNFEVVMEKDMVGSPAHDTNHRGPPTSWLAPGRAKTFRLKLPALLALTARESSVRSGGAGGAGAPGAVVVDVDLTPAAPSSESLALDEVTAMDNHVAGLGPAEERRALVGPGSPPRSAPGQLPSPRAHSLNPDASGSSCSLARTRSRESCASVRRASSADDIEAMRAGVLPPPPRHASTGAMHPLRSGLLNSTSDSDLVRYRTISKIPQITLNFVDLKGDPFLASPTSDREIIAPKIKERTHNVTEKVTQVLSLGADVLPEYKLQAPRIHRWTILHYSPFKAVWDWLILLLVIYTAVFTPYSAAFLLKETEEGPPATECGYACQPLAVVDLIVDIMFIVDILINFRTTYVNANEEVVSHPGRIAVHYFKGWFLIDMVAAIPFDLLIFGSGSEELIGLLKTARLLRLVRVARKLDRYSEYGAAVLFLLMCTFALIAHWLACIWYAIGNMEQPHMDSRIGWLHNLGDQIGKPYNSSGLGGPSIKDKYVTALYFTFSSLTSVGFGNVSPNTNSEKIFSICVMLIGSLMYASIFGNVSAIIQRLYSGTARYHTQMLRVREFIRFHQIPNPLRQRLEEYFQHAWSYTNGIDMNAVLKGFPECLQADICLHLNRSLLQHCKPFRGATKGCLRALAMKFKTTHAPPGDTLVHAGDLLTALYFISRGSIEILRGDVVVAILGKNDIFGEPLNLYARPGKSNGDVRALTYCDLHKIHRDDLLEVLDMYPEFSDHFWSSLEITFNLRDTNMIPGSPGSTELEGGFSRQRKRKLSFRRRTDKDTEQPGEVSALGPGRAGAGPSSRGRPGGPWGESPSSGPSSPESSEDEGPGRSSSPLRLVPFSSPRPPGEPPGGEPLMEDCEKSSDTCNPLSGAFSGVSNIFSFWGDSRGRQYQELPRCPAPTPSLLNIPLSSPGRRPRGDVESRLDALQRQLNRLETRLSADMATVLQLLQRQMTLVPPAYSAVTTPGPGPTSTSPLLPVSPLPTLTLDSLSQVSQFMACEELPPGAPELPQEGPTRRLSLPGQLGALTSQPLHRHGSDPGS
Hit rate of the full screen: of about 310,000 compounds, about 14,000 (4.5%) showed an effect of 50% or more. Effects have a minus sign here. This excerpt belongs to a sample that is enriched for strong results.
Catalogue of compounds with associated hERG current change (%, negative = inhibition) at 10uM
Kindly report the value followed by its unit.

Known hERG current change (%, negative = inhibition) at 10uM results, listed for orientation:
compound | system | value.reported
O=C(CC(Sc1n[nH]c(-c2ccccc2)n1)c1ccccc1)NCc1ccccc1 (stereo not drawn) | human ether-à-go-go-related gene (hERG) potassium channel (human, UniProt Q12809) | -16%
O=C(NCC1(N2CCOCC2)CCCCC1)c1ccc(Cl)c(S(=O)(=O)NCc2ccco2)c1 | human ether-à-go-go-related gene (hERG) potassium channel (human, UniProt Q12809) | -52.1%
CC(=O)c1ccc(S(=O)(=O)N(C)CC(=O)Nc2ccc(C)cc2)cc1 | human ether-à-go-go-related gene (hERG) potassium channel (human, UniProt Q12809) | -0.949%
O=C(OC1CCCCC1=O)c1ccc(S(=O)(=O)Nc2ccccc2)cc1 (stereo not drawn) | human ether-à-go-go-related gene (hERG) potassium channel (human, UniProt Q12809) | 0.644%
CCCC(=O)N1CCN(c2nc3ccc(Br)cc3s2)CC1 | human ether-à-go-go-related gene (hERG) potassium channel (human, UniProt Q12809) | -71%
CC(=O)N1CCN(c2nc3ccc(Br)cc3s2)CC1 | human ether-à-go-go-related gene (hERG) potassium channel (human, UniProt Q12809) | -49.4%

Test system human ether-à-go-go-related gene (hERG) potassium channel (human, UniProt Q12809); read-out hERG current change (%, negative = inhibition) at 10uM; what value for COc1ccc(OC)c(S(=O)(=O)N2CCC(C(=O)NCc3ccc4c(c3)OCO4)CC2)c1 ?
-3.84%

Quick check: hERG current change (%, negative = inhibition) at 10uM on human ether-à-go-go-related gene (hERG) potassium channel (human, UniProt Q12809), item CCn1nc(C)c(CNC(=O)C2CCC(=O)N(CCc3ccc(Cl)cc3)C2)c1C (stereo not drawn) ?
-21.6%

Lookup: hERG current change (%, negative = inhibition) at 10uM / human ether-à-go-go-related gene (hERG) potassium channel (human, UniProt Q12809) / Cc1cc(-n2c(SCc3ccccc3F)nc3n[nH]c(C)c3c2=N)ccc1Cl
15.8%

human ether-à-go-go-related gene (hERG) potassium channel (human, UniProt Q12809) / hERG current change (%, negative = inhibition) at 10uM / COCCn1c(=N)c(C(=O)NCCc2ccc(OC)cc2)cc2c(=O)n3cccc(C)c3nc21 : value?
-84.8%

Which measured hERG current change (%, negative = inhibition) at 10uM belongs to Cc1ccc2nc(N3CCC(C(=O)N4CCC5(CC4)OCCO5)CC3)sc2c1 , tested on human ether-à-go-go-related gene (hERG) potassium channel (human, UniProt Q12809)?
-19.8%

Return hERG current change (%, negative = inhibition) at 10uM measured with human ether-à-go-go-related gene (hERG) potassium channel (human, UniProt Q12809) given this compound: COc1ccc(NC(=O)CCCn2c(=O)c3sccc3n(Cc3cccc(C)c3)c2=O)cc1
12.7%

Param readout= hERG current change (%, negative = inhibition) at 10uM; system= human ether-à-go-go-related gene (hERG) potassium channel (human, UniProt Q12809); entry= CCNC(=O)c1cc2c(=O)n3cccc(C)c3nc2n(CCc2ccccc2)c1=N ; returns value.
-80.3%

Field: hERG current change (%, negative = inhibition) at 10uM (human ether-à-go-go-related gene (hERG) potassium channel (human, UniProt Q12809)). Entry: O=C(CN1C(=O)S/C(=C\c2ccccc2F)C1=O)NCCCn1ccnc1
-9.34%

Return hERG current change (%, negative = inhibition) at 10uM measured with human ether-à-go-go-related gene (hERG) potassium channel (human, UniProt Q12809) given this compound: COc1ccc(/C=C2\SC(=O)N(CC(=O)NCCCn3ccnc3)C2=O)cc1
-44.5%

Hello, I am looking for reported hERG current change (%, negative = inhibition) at 10uM with human ether-à-go-go-related gene (hERG) potassium channel (human, UniProt Q12809) for CC(C)(C)C(=O)N1CCN(c2nc3ccc(Br)cc3s2)CC1 . Could you help?
-8.45%

Kindly state the measured hERG current change (%, negative = inhibition) at 10uM obtained for Cc1ccc(CNC(=O)C2CCC(=O)N(CCc3ccc(Cl)cc3)C2)cc1 (stereo not drawn) with human ether-à-go-go-related gene (hERG) potassium channel (human, UniProt Q12809).
-40.2%

Param readout= hERG current change (%, negative = inhibition) at 10uM; system= human ether-à-go-go-related gene (hERG) potassium channel (human, UniProt Q12809); entry= COc1cccc(-n2cnc3sc(C)c(C)c3c2=O)c1 ; returns value.
-12%

====

target: human ether-à-go-go-related gene (hERG) potassium channel (human); assay: primary screen, population patch clamp on CHO cells stably expressing hERG; higher = less effect of the substance
The whole screen tested about 310,000 compounds, of which about 14,000 (4.5%) showed an effect of 50% or more. Effects have a minus sign here. The entries come from a sample that favours strong results as a whole.
Reported values of hERG current change (%, negative = inhibition) at 10uM for individual entries
Quick reminder: number only, in %, skip the unit.

molecule | unit.symbol | value.reported
CCCNC(=O)C1CC2Cn3c(nc4ccccc43)C2N1C (stereo not drawn) | % | 12.8
CCN1CCN(C(c2cccs2)C(C)NC(=O)Oc2ccccc2)CC1 (stereo not drawn) | % | -38.5
Cc1cc2nc3n(c2cc1C)CC1CC(C(=O)NCc2cccc(Br)c2)N(C)C31 (stereo not drawn) | % | -72.5
CC1(C)Oc2ccc(C(=O)N3CCOCC3)cc2N(CC(=O)N2CCOCC2)C1=O | % | 18.7
Cc1ccc(-c2noc(CSc3nc(N)cc(N)n3)n2)cc1 | % | -4.24

I am curious: what hERG current change (%, negative = inhibition) at 10uM value has been reported for Cn1cc(CN2CCCC(C(=O)c3cccs3)C2)c(-c2cccc(Cl)c2)n1 (stereo not drawn) ?
-39.2

Look up hERG current change (%, negative = inhibition) at 10uM: O=C(Nc1ccccc1F)c1ccc(CN2CCN(c3ccccc3)CC2)cc1
-70.7

May I ask what hERG current change (%, negative = inhibition) at 10uM has been recorded for COCCNC(=O)C1CC2Cn3c(nc4cc5ccccc5cc43)C2N1C (stereo not drawn) ?
-3.93

Recorded hERG current change (%, negative = inhibition) at 10uM of CC1CCCCC1NC(=O)c1ccc(S(=O)(=O)NCC2CCCO2)cc1 (stereo not drawn) , please.
-10.7

Which hERG current change (%, negative = inhibition) at 10uM is reported for this molecule? CCn1c2ccccc2c2cc(/C=N/n3c(C)nnc3C)ccc21
-25

Which hERG current change (%, negative = inhibition) at 10uM value belongs to COCCNC(=O)C1CC2Cn3c(nc4cc(C)c(C)cc43)C2N1C (stereo not drawn) ?
8.23

Reported hERG current change (%, negative = inhibition) at 10uM, molecule Cc1cc2nc3n(c2cc1C)CC1CC(C(=O)NCc2ccccc2)N(C)C31 (stereo not drawn) : ____
-31.4

Could you share which hERG current change (%, negative = inhibition) at 10uM value was measured for Cc1ccccc1NC(=O)c1ccc(CN2CCc3ccccc3C2)cc1 ?
-16.4

Entry Cc1nn(C)cc1CN1CCCC(C(=O)c2ccc(-c3ccccc3)c(F)c2)C1 (stereo not drawn) has what hERG current change (%, negative = inhibition) at 10uM?
-15.3

Could you share which hERG current change (%, negative = inhibition) at 10uM value was measured for Cc1ccc(C(=O)Nc2ccc(N3CCN(C(=O)c4ccco4)CC3)cc2)cc1 ?
10.4

Please look up its hERG current change (%, negative = inhibition) at 10uM: COc1cc(CN2CCC(CO)(CCOc3ccccc3)CC2)cc(OC)c1
-67.3

Could you share which hERG current change (%, negative = inhibition) at 10uM value was measured for O=C(c1ccc(CN2CCOCC2)cc1)N1CCC(Cc2ccccc2)CC1 ?
-3.35

Bench note: what hERG current change (%, negative = inhibition) at 10uM did CCc1ccc(/C=N/NC(=O)c2cc(-c3ccccc3OC)nc3ccccc23)s1 show?
9.69

====

target: human ether-à-go-go-related gene (hERG) potassium channel (human, UniProt Q12809); experiment: primary screen, population patch clamp on CHO cells stably expressing hERG; higher = less effect of the substance;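 further: peak tail current of the secondary pulse compared with the same well before compound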
The whole screen tested about 310,000 compounds, of which about 14,000 (4.5%) showed an effect of 50% or more. The effect is printed as a negative number. For the sample, strong results were picked, then their nearest neighbours and some compounds at random.
Entries and their measured hERG current change (%, negative = inhibition) at 10uM follow.
State the answer as a number, implicitly in %.

# value lookup — system human ether-à-go-go-related gene (hERG) potassium channel (human, UniProt Q12809), readout hERG current change (%, negative = inhibition) at 10uM, item CC(C)C(=O)Nc1nnc(SCC(=O)NC2CC2)s1;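 further: peak tail current of the secondary pulse compared with the same well before compound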
12.8

Lab request: please report hERG current change (%, negative = inhibition) at 10uM under test system human ether-à-go-go-related gene (hERG) potassium channel (human, UniProt Q12809) for Cc1ccc(-c2csc3nc[nH]c(=O)c23)cc1;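 further: peak tail current of the secondary pulse compared with the same well before compound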
6.88

Recall the recorded hERG current change (%, negative = inhibition) at 10uM for Cn1c(CO)c(-c2ccccc2)c2cc([N+](=O)[O-])ccc21 with human ether-à-go-go-related gene (hERG) potassium channel (human, UniProt Q12809) and state it.
10.2

Missing value: hERG current change (%, negative = inhibition) at 10uM, human ether-à-go-go-related gene (hERG) potassium channel (human, UniProt Q12809), entry CCOC(=O)c1cc(C#N)c(N2CCCC2)nc1-c1ccccc1 . Fill in?
-7.5

# get_value(readout= hERG current change (%, negative = inhibition) at 10uM, system= human ether-à-go-go-related gene (hERG) potassium channel (human, UniProt Q12809)) for COc1ccc(CCn2nnnc2C(c2ccc(Cl)cc2)N2CCN(C)CC2)cc1OC.Cl (stereo not drawn);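 further: peak tail current of the secondary pulse compared with the same well before compound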
-11.6

What measured hERG current change (%, negative = inhibition) at 10uM is associated with C[C@@H](NCCc1ccc(O)cc1)[C@@H](O)c1ccc(O)cc1.Cl on human ether-à-go-go-related gene (hERG) potassium channel (human, UniProt Q12809)?
-11.5
